This collection of values is drawn from PubChem BioAssay (NCI).

Test system: NCI/ADR-RES ovarian
Assay: NCI tumour cell line growth inhibition, 48 h
Some compounds, each annotated with its measured TGI.

compound	TGI
CCOC(=O)C1=C(C)N(Cc2ccccc2)C2(O)C=CC(=O)C3=C(O)c4ccccc4C(=O)C312 (stereo not given)	0.708 µM
O=C1/C(=C\c2ccccc2)C2OCC=C3CN4CCC56c7ccccc7N1C5C2C3CC46 (stereo not given)	> 100 µM
O=C(Nc1cccc(C(F)(F)F)c1)c1cc2ccccc2cc1O	9.34 µM
COCCN1C(=O)C2c3[nH]c4ccccc4c3C3CCC(C(C)(C)C)CC3C2C1=O (stereo not given)	42.6 µM
COc1cccc(NC2=C(Cl)C(=O)N(Cc3ccc(Cl)cc3)C2=O)c1	5.39 µM
COc1cc2ccc3ccncc3c2cc1OC	> 10 µM
CC(C(N)=O)N(C)C(=O)c1cnc2ccccc2c1 (stereo not given)	> 100 µM
C=C(C)[C@@H]1CC[C@]2(CO)CC[C@]3(C)[C@H](CC[C@@H]4[C@@]5(C)CC[C@H](NCO)C(C)(C)[C@@H]5CC[C@]43C)[C@@H]12	1.72 µM
CN(C(=O)CNC(=O)/C=C/c1cccc(Cl)c1)C1CCS(=O)(=O)CC1	> 100 µM
CSCCCNC(=O)[C@H](CSC)NC(=O)c1csc(CCNC(=O)[C@@H](NSc2ccccc2[N+](=O)[O-])C(C)O)n1 (stereo not given in full)	> 100 µM
O=c1[nH]c2ccc([N+](=O)[O-])cc2nc1/C=C(\O)c1ccccc1	81.5 µM
N#Cc1nc(-c2cccc(-c3nc(C#N)c(N)o3)n2)oc1N	> 100 µM
O=C(c1ccc2ccccc2c1)c1c(C(F)(F)F)n([O-])c2ccc(F)cc2[n+]1=O	4.57 µM
C=C1C(=O)OC2C3OC(C)(CCC(O)C3COC(C)=O)CC(OC(=O)/C(=C/C)COC(C)=O)C12 (stereo not given)	11 µM
O=C1C=C(N2CCN(CCOCCO)CC2)C(=O)c2c(O)ccc(O)c21	10.4 µM
C=CC[C@H](N=C(SC)SC)C(=O)N1C(=O)N(C)[C@@H](C)[C@H]1c1ccccc1	> 100 µM
C=CCNC(=S)/N=C/C(C(=O)Nc1ccccc1C)=C(\C)O	> 100 µM
Nc1nc(N)c2c(n1)NC(c1sc(Cl)nc1Cl)CC(c1ccc3c(c1)OCO3)=N2 (stereo not given)	25.3 µM
CCCCCCCCCCCCCCCCOCC(O)CO (stereo not given)	34.7 µM
CC(C)C(NC(=O)C(Cc1ccccc1)NC(=O)[C@H]1CCC[C@H]1NC(=O)C(Cc1ccc(OC(C)(C)C)cc1)NC(=O)OC(C)(C)C)C(N)=O (stereo not given in full)	> 100 µM
O=C(NOCCO)c1cc(CN2OCCCC2=O)c(F)c(F)c1Nc1ccc(I)cc1F	> 100 µM
Cc1ccc(/C=C2\N=C(N3CCCC(CO)C3)NC2=O)cc1 (stereo not given)	> 100 µM
CC(C)(C)C1=C(Br)C(OC(=O)C(F)(F)F)(C(C)(C)C)OP1(=O)c1ccccc1 (stereo not given)	> 100 µM
COc1cc(-c2cc(=O)c3c(O)c(OC)c(OC)c(OC)c3o2)cc(OC)c1OC	> 100 µM
c1cc2c(cc1C1=NCCN1)c1cc(C3=NCCN3)ccc1n2CC1CCCCC1	> 100 µM
CCNC(=S)N/N=C(\C)c1cccc(C)n1	> 100 µM
O=S(=O)(O)c1ccc2c(N=Nc3ccc(Sc4ccc(N=Nc5c(O)ccc6cc(S(=O)(=O)O)ccc56)cc4)cc3)c(O)ccc2c1	> 100 µM
CCOC(=O)Cn1c(=O)c(C)cn(COCCO)c1=O	> 100 µM
Cc1cc(Nc2nc(-c3ccncc3)nc3ccccc23)n[nH]1	> 100 µM
COc1ccc(C2=Nc3c/c(=C\c4c(O)[nH]c5cc(Cl)ccc45)ccc3=N2)cc1	33.8 µM
CCCOC(=O)C1C2CCC(O2)C1C(=O)O (stereo not given)	> 100 µM
NS(=O)(=O)c1ccc(N=Nc2ccc(O)c(C(=O)O)c2)cc1	> 100 µM
CCCCCCCCCCSC(=N)N	22.3 µM
Cc1c(Cl)cccc1NC(=O)c1sc2nc3c(cc2c1N)CCCC3	> 100 µM
O=C(/C=C/c1ccccc1)CCC1C(=O)NC(=S)NC1=O	> 100 µM
CC1(C)CC(=O)C2=C(C1)OC1(CC2c2ccc(Cl)cc2)CC(c2ccc(Cl)cc2)C2=C(CC(C)(C)CC2=O)O1 (stereo not given)	> 73.3 µM
CCOC(=O)CCC(NC(=O)c1ccc(Nc2nc3ccccc3nc2C(=O)OCC)cc1)C(=O)OCC (stereo not given)	27 µM
O=C1N(c2ccccc2)C(=S)/C(=C/c2ccc(Cl)cc2)N1c1ccc(Cl)cc1	> 100 µM
O=c1cc(N2CCCC2)[nH]c(=O)n1-c1ccc(Cl)cc1	> 100 µM
COc1ccc2c(c1)CCC/C2=N\NS(=O)(=O)c1c(C)cc(C)cc1C	59.9 µM
